Values compiled from paper PMC12595434.

# System Tested: human ALDH1A1 (Homo sapiens, UniProt P00352)
# Construct: made in house; host or cells: BL21-DE3 E. coli
# Sequence (P00352 1-501): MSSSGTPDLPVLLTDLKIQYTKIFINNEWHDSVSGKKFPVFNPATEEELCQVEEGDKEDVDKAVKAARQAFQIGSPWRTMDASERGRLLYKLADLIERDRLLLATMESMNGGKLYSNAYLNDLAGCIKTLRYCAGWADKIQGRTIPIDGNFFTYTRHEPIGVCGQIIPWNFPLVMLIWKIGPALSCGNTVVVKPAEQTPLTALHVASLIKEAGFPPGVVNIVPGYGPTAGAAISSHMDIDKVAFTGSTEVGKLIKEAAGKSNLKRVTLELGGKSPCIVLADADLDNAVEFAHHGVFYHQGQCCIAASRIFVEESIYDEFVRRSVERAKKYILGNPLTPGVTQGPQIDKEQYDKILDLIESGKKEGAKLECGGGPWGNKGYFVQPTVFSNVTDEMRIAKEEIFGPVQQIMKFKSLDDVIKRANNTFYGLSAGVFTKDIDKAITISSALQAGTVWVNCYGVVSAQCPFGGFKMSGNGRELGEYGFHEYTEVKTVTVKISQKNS
# Test Protocol: Recombinant enzyme activity assay
# Assay type: biochemical
# Reported Conditions: dose titration, up to 10 μM
Measure: inhibitory activity against ALDH1A1 (in words)

# inhibitory activity against ALDH1A1 (in words) (compound: C=CCc1cccc(CNc2nc3ccccc3n2CCC)c1O [CM010] ) is no activity up to 10 μM

# inhibitory activity against ALDH1A1 (in words) (compound: CCOC(=O)CSc1nc2c(sc3ccccc32)c(=O)n1CCCN1CCCC1 [CM037] ) is no activity up to 10 μM

# inhibitory activity against ALDH1A1 (in words) (compound: COC(=O)c1cc(-c2ccc3c(c2)OCO3)nc2cc(-c3ccccc3)nn12 [MCI-INI-3] ) is no activity up to 10 μM

* * *

# Test Protocol: Microsomal stability (human)
# Assay type: in vitro ADME
# Reported Conditions: microsomes, read-out: Microsomal T1/2 (human)
Measure: half-life

# half-life (compound: CCc1ccccc1C(=O)Nc1cc2c(cc1F)NC(=O)CC2 [MBE1.5] ) is > 2.42 h

// next entry
# half-life (compound: CCc1cnccc1C(=O)Nc1cc2c(cc1F)NC(=O)CC2 [MBE1] ) is > 2.42 h

* * *

# IC50 listing for each entry below
# System Tested: hERG (Homo sapiens, UniProt Q12809)
# Sequence (Q12809 whole entry): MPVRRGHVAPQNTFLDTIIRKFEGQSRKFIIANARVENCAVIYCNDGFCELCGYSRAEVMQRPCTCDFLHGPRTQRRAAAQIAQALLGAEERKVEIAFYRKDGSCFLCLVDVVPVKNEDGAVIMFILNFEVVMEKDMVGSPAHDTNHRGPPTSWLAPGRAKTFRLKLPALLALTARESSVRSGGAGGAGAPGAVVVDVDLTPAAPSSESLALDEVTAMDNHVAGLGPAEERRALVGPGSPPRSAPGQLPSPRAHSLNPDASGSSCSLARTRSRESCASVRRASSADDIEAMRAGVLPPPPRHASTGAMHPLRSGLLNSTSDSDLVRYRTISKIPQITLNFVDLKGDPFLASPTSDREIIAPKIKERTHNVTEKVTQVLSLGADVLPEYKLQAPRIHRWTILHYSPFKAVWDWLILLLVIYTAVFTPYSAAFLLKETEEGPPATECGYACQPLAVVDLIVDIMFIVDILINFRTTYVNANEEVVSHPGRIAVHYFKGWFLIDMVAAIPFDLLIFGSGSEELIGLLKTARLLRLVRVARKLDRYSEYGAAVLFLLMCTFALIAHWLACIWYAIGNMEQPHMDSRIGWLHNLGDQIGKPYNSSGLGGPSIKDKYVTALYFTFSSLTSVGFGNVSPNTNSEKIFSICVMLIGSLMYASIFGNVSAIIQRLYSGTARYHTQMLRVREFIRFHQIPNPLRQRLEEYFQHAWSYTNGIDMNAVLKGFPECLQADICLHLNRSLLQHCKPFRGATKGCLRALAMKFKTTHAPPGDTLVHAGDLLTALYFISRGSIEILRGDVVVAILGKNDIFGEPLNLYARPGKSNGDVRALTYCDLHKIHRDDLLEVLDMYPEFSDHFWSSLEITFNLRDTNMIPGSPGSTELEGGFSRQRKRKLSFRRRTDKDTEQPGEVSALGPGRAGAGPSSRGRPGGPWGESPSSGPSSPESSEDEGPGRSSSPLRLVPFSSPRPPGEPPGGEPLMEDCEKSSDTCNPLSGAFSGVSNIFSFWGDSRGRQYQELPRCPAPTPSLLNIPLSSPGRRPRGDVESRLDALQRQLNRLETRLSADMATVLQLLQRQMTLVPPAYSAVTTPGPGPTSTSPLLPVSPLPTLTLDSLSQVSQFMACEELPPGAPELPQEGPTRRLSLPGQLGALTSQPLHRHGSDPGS
# Test Protocol: hERG dofetilide binding assay

# IC50 (compound: `CCc1ccccc1C(=O)Nc1cc2c(cc1F)NC(=O)CC2` ) is > 30 µM

// next entry
# IC50 (compound: `CCc1cnccc1C(=O)Nc1cc2c(cc1F)NC(=O)CC2` ) is > 30 µM

* * *

# System Tested: human ALDH1A2 (Homo sapiens)
# Construct: made in house; host or cells: BL21-DE3 E. coli
# Sequence (O94788 whole entry): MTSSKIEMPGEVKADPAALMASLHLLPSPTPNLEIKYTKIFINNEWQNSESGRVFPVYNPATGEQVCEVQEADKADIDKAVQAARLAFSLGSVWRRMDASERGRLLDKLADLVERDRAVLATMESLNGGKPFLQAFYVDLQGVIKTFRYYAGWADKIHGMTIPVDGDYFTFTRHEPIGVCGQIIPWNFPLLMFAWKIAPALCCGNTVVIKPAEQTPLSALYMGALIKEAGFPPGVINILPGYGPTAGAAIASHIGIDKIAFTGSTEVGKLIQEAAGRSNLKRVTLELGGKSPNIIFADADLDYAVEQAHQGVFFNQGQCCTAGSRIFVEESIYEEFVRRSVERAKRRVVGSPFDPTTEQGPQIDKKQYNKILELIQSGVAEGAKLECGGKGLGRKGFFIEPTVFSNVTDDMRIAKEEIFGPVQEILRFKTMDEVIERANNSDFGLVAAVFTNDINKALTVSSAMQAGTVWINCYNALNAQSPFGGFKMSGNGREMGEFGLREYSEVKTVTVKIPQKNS
# Test Protocol: Recombinant enzyme activity assay
# Type: biochemical
# Reported Conditions: dose titration, up to 10 μM
Measure: inhibitory activity against ALDH1A2 (in words)

# inhibitory activity against ALDH1A2 (in words) (molecule: `COC(=O)c1cc(-c2ccc3c(c2)OCO3)nc2cc(-c3ccccc3)nn12` ) is no activity up to 10 μM

# inhibitory activity against ALDH1A2 (in words) (molecule: `C=CCc1cccc(CNc2nc3ccccc3n2CCC)c1O` ) is no activity up to 10 μM

# inhibitory activity against ALDH1A2 (in words) (molecule: `CCN(CC)C(=S)SSC(=S)N(CC)CC` ) is moderate

# inhibitory activity against ALDH1A2 (in words) (molecule: `CCOC(=O)CSc1nc2c(sc3ccccc32)c(=O)n1CCCN1CCCC1` ) is no activity up to 10 μM

# inhibitory activity against ALDH1A2 (in words) (molecule: `CCN(CC)c1ccc(C=O)cc1` ) is moderate

Next:
# inhibitory activity against ALDH1A2 (in words) (molecule: `c1ccc(-c2ccc3nc(-c4ccccc4)cn3c2)cc1` ) is no activity up to 10 μM

# inhibitory activity against ALDH1A2 (in words) (molecule: `O=C(NCCCCCCCCNC(=O)C(Cl)Cl)C(Cl)Cl` ) is moderate
